Origin of measurements: ChEMBL document CHEMBL1201862

Tested on: RXF 393
Assay: NCI tumour cell line growth inhibition, 48 h
Calls of active or inactive are those of the source. Cut-off read from the data, not from the text of the source: active = GI50 up to about 1.1 µM and inactive = higher.
I would appreciate it if you answered using one of these outcomes: TRUE for active, FALSE for inactive

Inquiry: Dear all, I need the recorded test outcome for CCOC(=O)C(=[N+]=[N-])C(=O)C[N+]12CCN(CC1)CC2 , thank you.
Reply text: FALSE

Inquiry: Test call, this molecule: COc1cc(/C=C\C(=O)O)ccc1OCc1ccccc1
Reply text: FALSE

Inquiry: Which outcome was assigned to [O-][S+](CCCl)c1c2ccccc2nc2ccccc12 (configuration not stated) in this test?
Reply text: FALSE

Inquiry: Returns: the outcome recorded for CC(C)C(=O)Nc1cc(C(F)(F)F)ccc1[N+](=O)[O-] in this assay.
Reply text: FALSE

Inquiry: So what was the verdict on Cc1ccc2nc(NC(=O)/C(Cc3nc4ccc(Cl)cc4nc3O)=N\NC(C)(C)C)sc2c1 in this test?
Reply text: FALSE

Inquiry: What is the recorded call for this molecule in the test? COC(CC1(/C=C/O[Si](C(C)C)(C(C)C)C(C)C)C(=O)N(COCC[Si](C)(C)C)c2ccccc21)OC (configuration not stated)
Reply text: FALSE

Inquiry: Just curious, what result did COC(=O)c1cc2c3c(cc(N(C)C)c2[nH]1)N(C(=O)c1cc2cc(OC)c(OC)c(OC)c2[nH]1)CC3CCl (configuration not stated) get here?
Reply text: TRUE

Inquiry: Just curious, what result did O=C1/C(=C/c2ccc(Cl)cc2)N=C(c2ccccc2)N1c1nc2ccc(Sc3ccccc3)cc2[nH]1 get here?
Reply text: FALSE

Inquiry: Fill in: this test's call for CCOC(=O)C(NC(=O)c1cccc(Cl)c1)(Nc1ccc(S(=O)(=O)Nc2cc(C)on2)cc1)C(F)(F)F (configuration not stated) is ___
Reply text: FALSE

Inquiry: Give the logged outcome of this assay for the following molecule: N#CC(=S)Nc1ccc(F)cc1
Reply text: FALSE

Inquiry: Hello, I am checking results. What call was entered for IC[P+]1(c2ccccc2)CCCC1 ?
Reply text: FALSE

Inquiry: Returns: the outcome recorded for COc1cc2c(cc1OC)-c1c3c(cc4c1[C@@H](C2)N(C)CC4)OCO3 in this assay.
Reply text: FALSE

Inquiry: # lookup: test call for COc1cc(OC)nc(-n2c(N)c(C(=O)O)c3ccc([N+](=O)[O-])cc3c2=O)n1
Reply text: FALSE

Inquiry: Which result was noted for this molecule in the test: CC12CCC(C)(c3cc(O)c(O)cc31)c1cc(O)c(O)cc12
Reply text: FALSE

Inquiry: How was CC(=O)NC1C(OCc2ccccc2)OC(COC(=O)CCCCCCCCCCNC(=O)CCNc2ccc([N+](=O)[O-])c3[nH]c4ccc(O)cc4c(=O)c23)C(O)C1OC(C)C(=O)N[C@H](C(=O)N[C@H](CCC(=O)O)C(N)=O)C(C)C (some centres not stated) classified in this test?
Reply text: FALSE

Inquiry: Query: recorded result category for Cc1ccc(S(=O)(=O)NC(=O)C2=C(c3ccccc3)[N-]N(C)c3nc4cccc[n+]4nc32)cc1 in this test
Reply text: FALSE

Inquiry: Check the results log: what was the call for COc1ccc(C2ON(c3cccc(C)n3)CC=C2C)cc1 (configuration not stated) ?
Reply text: FALSE

###

System: SF-539
Test: NCI tumour cell line growth inhibition, 48 h
Activity calls are given as the source filed them. Rule as the data show it: active = GI50 up to about 1.1 µM and inactive = higher.
I would appreciate it if you answered using one of these outcomes: Yes for active, No for inactive

Inquiry: What classification did N#CC1C(=O)NC2=C(CCOc3c2ccc2ccccc32)C1c1ccc(F)cc1 (centres undefined) end up with in this test?
Reply text: No

Inquiry: Call for entry CC(C)=CC1CCc2ccccc2N1S(=O)(=O)c1ccc(C)cc1 (centres undefined) :
Reply text: No

Inquiry: Per the assay record, what outcome was assigned to CCCCCCCCCCCCCCCCP(=O)([O-])OCC[N+](C)(C)C ?
Reply text: No

Inquiry: Assay result, entry CCOC(=O)c1[nH]c2ccccc2c1C(=O)C[C@H](NC(=O)C(F)(F)F)C(=O)OC — outcome?
Reply text: No

Inquiry: What is the recorded call for this molecule in the test? C=CCN1C(N)=C(C#N)C(C#N)(C#N)C1CCC (centres undefined)
Reply text: No

Inquiry: Call for entry c1ccc(N/N=C2\NN=C(c3ccccc3)CS2)cc1 :
Reply text: No

Inquiry: Outcome logged for Cc1c(N2C(=O)/C(=C/c3ccc(Cl)cc3)N=C2c2ccccc2)c(=O)n(-c2ccccc2)n1C in this assay:
Reply text: No

Inquiry: # outcome recorded in this test, key = CC1(C)C(C#N)C1C1=C(N2CCOCC2)[C@]2(C)C(OC(=O)c3ccccc3)CC[C@@H]2C1 (some centres undefined)
Reply text: No

Inquiry: Status in this test for COc1cc(/C=C/C(=O)CC(=O)/C=C/c2ccc(O)c(OC)c2)ccc1O ?
Reply text: No

Inquiry: Please let me know the test result on file for O=c1c(Sc2ncccn2)c(Sc2ncccn2)cnn1CCl .
Reply text: No

Inquiry: How was S=C(N/N=C/c1ccccn1)N1CCCCCC1 classified in this test?
Reply text: Yes

Inquiry: Please let me know the test result on file for C=C1C(=O)O[C@H]2[C@H]3O[C@@H](C[C@@H]12)[C@](C)(O)CCCC(C)=CCC[C@H]3C .
Reply text: No

Inquiry: GET /call?item= O=C(O)c1ccccc1CC1Cc2ccc3c(c2C1=O)CCC3 (centres undefined) returns the recorded outcome of this test.
Reply text: No

Inquiry: Can you look up the reported call for Oc1c(C2=NNC(c3ccc(Cl)cc3Cl)C2)ccc2ccccc12 (centres undefined) for me?
Reply text: No
